# Tested On: T1, EsCas13d, nuclease-dead (Eubacterium siraeum, UniProt B0MS50, R295A;H300A;R849A;H854A)
# T1 sequence: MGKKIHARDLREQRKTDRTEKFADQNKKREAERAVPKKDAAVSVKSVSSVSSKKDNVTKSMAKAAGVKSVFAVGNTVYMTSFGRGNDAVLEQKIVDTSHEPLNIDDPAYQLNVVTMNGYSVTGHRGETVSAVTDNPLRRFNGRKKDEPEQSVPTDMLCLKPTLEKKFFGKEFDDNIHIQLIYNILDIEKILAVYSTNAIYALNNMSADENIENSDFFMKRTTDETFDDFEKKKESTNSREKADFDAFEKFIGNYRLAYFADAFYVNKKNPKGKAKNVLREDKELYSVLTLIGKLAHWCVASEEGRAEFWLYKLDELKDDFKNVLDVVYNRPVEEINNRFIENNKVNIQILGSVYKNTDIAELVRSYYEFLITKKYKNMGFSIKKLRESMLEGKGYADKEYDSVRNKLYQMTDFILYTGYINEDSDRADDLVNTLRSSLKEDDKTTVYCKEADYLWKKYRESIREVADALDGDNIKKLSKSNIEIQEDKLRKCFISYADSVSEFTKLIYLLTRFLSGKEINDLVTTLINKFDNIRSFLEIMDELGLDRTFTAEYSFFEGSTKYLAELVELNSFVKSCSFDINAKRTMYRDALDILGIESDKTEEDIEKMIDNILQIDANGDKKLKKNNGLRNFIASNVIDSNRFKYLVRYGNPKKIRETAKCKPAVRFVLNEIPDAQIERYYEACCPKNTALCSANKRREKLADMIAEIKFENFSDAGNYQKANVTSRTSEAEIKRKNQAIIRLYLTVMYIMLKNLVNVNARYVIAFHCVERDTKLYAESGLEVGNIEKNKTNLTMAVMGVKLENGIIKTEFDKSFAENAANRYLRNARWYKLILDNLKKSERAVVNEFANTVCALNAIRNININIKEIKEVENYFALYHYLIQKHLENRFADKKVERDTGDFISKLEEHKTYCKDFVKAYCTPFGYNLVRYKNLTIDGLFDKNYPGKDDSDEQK
# Procedure Details: crRNA (strand 1, pre-loaded); Mg2+; 40 mM Tris-HCl pH 7.5, 150 mM NaCl, 6 mM MgCl2, 1 mM DTT, 0.1% Tween-20, 0.2 mg/ml BSA; 25 C; 10 min per concentration, then washed
# Study Conditions: tags: His6-TwinStrep-SUMO cleaved; N-terminal SNAP kept (SNAP-Surface 488); label: 3' end held by stalled T7 RNA polymerase
Observed Property: log10 Kd (log10 of the value in nM)
Recall that a logarithmic scale is used here: each number is log10 of Kd in nM.

Query: May I ask what log10 Kd has been recorded for target 2 MT 5'PFS AAA 3'PFS AUG (mixed) RNA 1: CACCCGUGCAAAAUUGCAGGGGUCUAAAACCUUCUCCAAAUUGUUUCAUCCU RNA 2: GGGAAUGGAUCCACAUCUACGAAUUCAAAAGGAUGAAACAAUUUGGAGAAGAUGAGAUCGGAAGAGCACACGU ?
Result: 0.64

Query: May I ask what log10 Kd has been recorded for target 2 MT 5'PFS GCU 3'PFS ACU (mixed) RNA 1: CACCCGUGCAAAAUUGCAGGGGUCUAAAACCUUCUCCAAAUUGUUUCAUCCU RNA 2: GGGAAUGGAUCCACAUCUACGAAUUCGCUAGGAUGAAACAAUUUGGAGAAGACUAGAUCGGAAGAGCACACGU ?
Result: 1.36

Query: May I ask what log10 Kd has been recorded for target 1 insG 3' of 19,insU 3' of 6 (mixed) RNA 1: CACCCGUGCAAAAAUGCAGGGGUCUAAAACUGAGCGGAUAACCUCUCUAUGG RNA 2: GGGAAUGGAUCCACAUCUACGAAUUCGUACCAUGAGAGAGGUUAUCCUGCUCACCGAGAUCGGAAGAGCACACGU ?
Result: 1.91

Query: May I ask what log10 Kd has been recorded for target 3 A18G (mixed) RNA 1: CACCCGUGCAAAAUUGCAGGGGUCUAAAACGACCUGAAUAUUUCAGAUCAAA RNA 2: GGGAAUGGAUCCACAUCUACGAAUUCGUUUUUGGUCUGAAAUAUUCAGGUCUGCAGAUCGGAAGAGCACACGU ?
Result: 1.28

Query: May I ask what log10 Kd has been recorded for target 1 C6G,U11A (mixed) RNA 1: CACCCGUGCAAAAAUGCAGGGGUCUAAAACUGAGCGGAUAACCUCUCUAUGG RNA 2: GGGAAUGGAUCCACAUCUACGAAUUCGUACCAUAGAGAGGAUAUCGGCUCACCGAGAUCGGAAGAGCACACGU ?
Result: 1.40

Query: May I ask what log10 Kd has been recorded for target 1 C2U,G17C (mixed) RNA 1: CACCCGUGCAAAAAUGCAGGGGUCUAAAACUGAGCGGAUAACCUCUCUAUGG RNA 2: GGGAAUGGAUCCACAUCUACGAAUUCGUACCAUACAGAGGUUAUCCGCUUACCGAGAUCGGAAGAGCACACGU ?
Result: 1.62

Query: May I ask what log10 Kd has been recorded for target 1 A1G,U11A (mixed) RNA 1: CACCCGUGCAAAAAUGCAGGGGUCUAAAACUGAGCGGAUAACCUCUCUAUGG RNA 2: GGGAAUGGAUCCACAUCUACGAAUUCGUACCAUAGAGAGGAUAUCCGCUCGCCGAGAUCGGAAGAGCACACGU ?
Result: 1.53

Query: May I ask what log10 Kd has been recorded for target 1 insA 3' of 6,insA 3' of 6 (mixed) RNA 1: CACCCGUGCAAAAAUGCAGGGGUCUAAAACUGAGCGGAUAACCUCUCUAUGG RNA 2: GGGAAUGGAUCCACAUCUACGAAUUCGUACCAUAGAGAGGUUAUCCAAGCUCACCGAGAUCGGAAGAGCACACGU ?
Result: 1.24

Query: May I ask what log10 Kd has been recorded for target 1 MT 5'PFS UAG 3'PFS AAC (mixed) RNA 1: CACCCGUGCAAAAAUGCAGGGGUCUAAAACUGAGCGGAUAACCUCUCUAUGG RNA 2: GGGAAUGGAUCCACAUCUACGAAUUCUAGCCAUAGAGAGGUUAUCCGCUCAAACAGAUCGGAAGAGCACACGU ?
Result: 1.53
